# Experiment: Dynamic light scattering of LNPs: Z-average diameter, number average diameter, PDI
# Assay type: physicochemical
# Test Settings: LNP, sg:mRNA 1:1, N/P 6.0, 50/9/38/3; Table 4, Experiments 101-104
// Number mean (nm) lookup, one value per entry
Please state the figure in nm; there is no need to write the unit.

As a guide, the following entries are already answered.
CCCCC/C=C\C/C=C\CCCCCCCC(=O)OCC(COC(=O)CCC(OCCCCCCCC)OCCCCCCCC)COC(=O)NCC1CCCN1CC (centres unmarked) [Compound 40]    66.92
CCCCCC/C=C\COC(=O)CCCCCCCC(=O)OCC(COC(=O)CCC(OCCCCCCCC)OCCCCCCCC)COC(=O)OCCCN(CC)CC (centres unmarked) [Compound 54]    77.96
CCCCC/C=C\C/C=C\CCCCCCCC(=O)OCC(COC(=O)CCCN(CC)CC)COC(=O)CCC(OCCCCCCCC)OCCCCCCCC (centres unmarked) [Compound 29]    70
CCCCC/C=C\C/C=C\CCCCCCCC(=O)OCC(COC(=O)CCC(OCCCCCCCC)OCCCCCCCC)COC(=O)C1CCN(C)CC1 (centres unmarked) [Compound 31]    61

Now consider the entry below.
Request: For CCCCC/C=C\C/C=C\CCCCCCCC(=O)OCC(COC(=O)CCC(OCCCCCCCC)OCCCCCCCC)COC(=O)OCC1CCCN(C)C1 (centres unmarked) [Compound 53] , what is its reported Number mean (nm)?
Response: 56.05

----------
# Experiment: pKa measurement of unformulated amine lipid (fluorescence, method of Jayaraman et al.)
# Format: physicochemical
# Test Settings: 100 μM in 0.1 M phosphate buffer, pH 2.0-12.0
# if value of pKa reaches 7, tag class 1; if it stays below, tag class 0

As a guide, the following entries are already answered.
CCCCCCCCCCOC(=O)CCCCCCCC(=O)OCC(COC(=O)CCC(OCCCCCCCC)OCCCCCCCC)COC(=O)OCCC1CCCN1C (stereo not drawn) [Compound 74]    class 0
CCCCC/C=C\C/C=C\CCCCCCCC(=O)OCC(COCCN(CC)CC)COC(=O)CCC(OCCCCCCCC)OCCCCCCCC (stereo not drawn) [Compound 98]    class 0
CCCCCCCC/C=C\CCCCCCCC(=O)OCC(COC(=O)CCC(OCCCCCCCC)OCCCCCCCC)COC(=O)OCCCN(CC)CC (stereo not drawn) [Compound 115]    class 0
CCCCCC/C=C\COC(=O)CCCCCCCC(=O)OCC(COC(=O)CCC(OCCCCCCC)OCCCCCCC)COC(=O)OCCCN(CC)CC (stereo not drawn) [Compound 84]    class 0

API: the following record is the query input.
Request: Reported pKa reaches at least 7 for CCCCC/C=C\C/C=C\CCCCCCCC(=O)OCC(COC(=O)CCC(OCCCCCCCC)OCCCCCCCC)COC(=O)NC(C)CN(C)C (stereo not drawn) [Compound 45] ?
Response: class 1

----------
// Encapsulation (%) lookup, one value per entry
# Experiment: RNA encapsulation efficiency of LNPs (Ribogreen fluorescence assay)
# Type: physicochemical
# Test Settings: LNP, sg:mRNA 1:1, N/P about 6, amine lipid/DSPC/cholesterol/PEG-2k-DMG 50/9/38/3; Table 2, Experiments 2-20
Please state the figure in %; there is no need to write the unit.

As a guide, the following entries are already answered.
CCCCC/C=C\C/C=C\CCCCCCCC(=O)OCC(COC(=O)CCC(OCCCCCCCC)OCCCCCCCC)COC(=O)OCCCN(C)CC (stereo not drawn)    96
CCCCC/C=C\C/C=C\CCCCCCCC(=O)OCC(COC(=O)CCC(OCCCCCCCC)OCCCCCCCC)COC(=O)OCCCCN(CC)CC (stereo not drawn)    97
CCCCCCCCCCOC(=O)CCCCCCCC(=O)OCC(COC(=O)CCCN(CC)CC)COC(=O)CCC(OCCCCCCCC)OCCCCCCCC (stereo not drawn)    98

Request: For CCCCC/C=C\C/C=C\CCCCCCCC(=O)OCC(COCCCN(CC)CC)COC(=O)CCC(OCCCCCCCC)OCCCCCCCC (stereo not drawn) , what is its reported Encapsulation (%)?
Response: 99

Request: For CCCCCCCCOC(=O)CCCCCCCC(=O)OCC(COC(=O)CCC(OCCCCCCCC)OCCCCCCCC)COC(=O)OCCCN(CC)CC (stereo not drawn) , what is its reported Encapsulation (%)?
Response: 95

Request: For CCCCC/C=C\C/C=C\CCCCCCCC(=O)OCC(COC(=O)CCCC(=O)OC(CCCCCCCC)CCCCCCCC)COC(=O)OCCCN(CC)CC (stereo not drawn) , what is its reported Encapsulation (%)?
Response: 98
